Just for reference, patent US6489364B2 is where these values come from.

Target: purified HIV proteinase (Human immunodeficiency virus type 1 group M subtype B, UniProt P04585)
Construct: purified HIV proteinase
Test: biochemical
Conditions: values in parentheses; affinity constant; read-out: (Ki μM)
What Ki was measured for each of the following?

Count: 6. Required value per item: Ki.
1. O=C(N[C@H]1c2ccccc2C[C@H]1O)[C@H](OCc1cccc(F)c1)[C@H](O)[C@@H](O)[C@@H](OCc1cccc(F)c1)C(=O)N[C@H]1c2ccccc2C[C@H]1O
2. O=C(N[C@H]1c2ccccc2C[C@H]1O)[C@@H](C[C@@H](O)[C@@H](OCc1ccccc1)C(=O)N[C@H]1c2ccccc2C[C@H]1O)OCc1ccccc1
3. CNC(=O)C(NC(=O)C(OCc1ccccc1F)C(O)C(O)C(OCc1ccccc1F)C(=O)NC(C(=O)NC)C(C)C)C(C)C (stereo not drawn)
4. CNC(=O)C(NC(=O)C(OCc1ccccc1)C(O)C(O)C(OCc1ccccc1)C(=O)NC1c2ccccc2CC1O)C(C)C (stereo not drawn)
5. CNC(=O)C(NC(=O)C(OCc1ccc(F)cc1F)C(O)C(O)C(OCc1ccc(F)cc1F)C(=O)NC(C(=O)NC)C(C)C)C(C)C (stereo not drawn)
6. O=C(N[C@H]1c2ccccc2C[C@H]1O)[C@H](OCc1ccccc1F)[C@H](O)[C@@H](O)[C@@H](OCc1ccccc1F)C(=O)N[C@H]1c2ccccc2C[C@H]1O

Result:
1: 0.05 µM; 2: 0.00097 µM; 3: 0.0005 µM; 4: 0.0012 µM; 5: 0.0001 µM; 6: 0.00013 µM
